Target: T1, h-FXIIa (human, UniProt P00748 20-615)
T1 construct: also called factor XIIa
T1 sequence (looked up): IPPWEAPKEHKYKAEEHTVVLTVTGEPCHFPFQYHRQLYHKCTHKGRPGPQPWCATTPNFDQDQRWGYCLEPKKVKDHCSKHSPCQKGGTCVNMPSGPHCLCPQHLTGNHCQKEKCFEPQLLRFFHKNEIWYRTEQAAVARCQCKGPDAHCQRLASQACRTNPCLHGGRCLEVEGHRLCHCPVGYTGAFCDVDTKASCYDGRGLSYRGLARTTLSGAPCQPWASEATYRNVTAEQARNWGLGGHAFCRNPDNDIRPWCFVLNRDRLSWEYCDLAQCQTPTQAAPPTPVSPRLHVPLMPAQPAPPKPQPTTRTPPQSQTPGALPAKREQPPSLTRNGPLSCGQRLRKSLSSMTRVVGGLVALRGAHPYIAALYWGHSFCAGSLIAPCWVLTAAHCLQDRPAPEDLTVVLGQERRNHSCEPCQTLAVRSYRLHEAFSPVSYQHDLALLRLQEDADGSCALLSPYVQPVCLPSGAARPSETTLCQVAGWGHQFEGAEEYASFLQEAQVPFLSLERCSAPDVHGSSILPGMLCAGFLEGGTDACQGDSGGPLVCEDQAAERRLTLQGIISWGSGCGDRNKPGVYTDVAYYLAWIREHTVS
Test: activity of TICA1 disulfide variants against TICA1 with 3 disulfides (FIG. 5); assay not named
Bridges are numbered along the chain shown (N, C = ends). Where no end group is shown, it is not given here.
attributeMeasured: activity (%)
Response body: numeric value in %, unit text excluded.

Worked examples follow.
RVCPRILMKCKKDSDALAECVCLEHGYAG (disulfide 10-22, 3-20) [TICA1 with 2 disulfide bonds (C3-C20, C10-C22)]	0.2
RVAPRILMKAKKDSDCLAEAVALEHGYCG (disulfide 16-28) [TICA1 with 1 disulfide bond (C16-C28)]	0.006
RVCPRILMKAKKDSDALAECVALEHGYAG (disulfide 3-20) [TICA1 with 1 disulfide bond (C3-C20)]	0.003
RVAPRILMKCKKDSDCLAEAVCLEHGYCG (disulfide 10-22, 16-28) [TICA1 with 2 disulfide bonds (C10-C22, C16-C28)]	0.3

Prompt: Please look up its activity (%): RVAPRILMKCKKDSDALAEAVCLEHGYAG (disulfide 10-22) [TICA1 with 1 disulfide bond (C10-C22)]
Completion: 0.003

The reported measurements were obtained from patent US20140296146A1.
